# targetSystem: OXA-1 (Escherichia coli, UniProt P13661)
# Sequence (P13661 26-276): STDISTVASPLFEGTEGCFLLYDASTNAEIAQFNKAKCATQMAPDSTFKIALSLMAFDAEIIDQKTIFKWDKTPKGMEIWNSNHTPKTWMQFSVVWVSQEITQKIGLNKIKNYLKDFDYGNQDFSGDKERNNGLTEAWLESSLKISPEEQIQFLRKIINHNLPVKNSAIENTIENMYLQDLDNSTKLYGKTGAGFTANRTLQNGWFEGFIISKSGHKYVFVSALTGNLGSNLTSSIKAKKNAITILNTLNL
# method: β-Lactamase inhibition, OXA-1 (nitrocefin substrate)
pIC50: −log10 of the molar value.
Measured pIC50, listed per entry for reference.
quantityMeasured: pIC50

INSERT INTO assay_data (compound, measuredresult) VALUES
  ('NC[C@@H]1CC[C@@H](CC(=O)N[C@H]2Cc3cccc(C(=O)O)c3OB2O)C[C@H]1CN (mixture of isomers) [Example 18]', '> 7.00'),
  ('N[C@H]1CC(C(=O)N[C@H]2Cc3cccc(C(=O)O)c3OB2O)C[C@@H]1N (mixture of isomers) [Example 19]', '> 7.00'),
  ('N[C@@H]1CC[C@@H](C(=O)N[C@H]2Cc3cccc(C(=O)O)c3OB2O)C[C@H]1N (mixture of isomers) [Example 20]', '6.00 to 7.00');
